The values you see were collected from ChEMBL document CHEMBL4765454.

Assay: Selectivity ratio of EC50 for mouse NIH3T3 cells to EC50 for human A2780 cells
Type: toxicity
Conditions: NIH3T3 cells versus A2780 cells, read-out: Ratio EC50
Measured property: selectivity ratio

>  <Molecule>
C=C(C)[C@@H]1CC[C@]2(C(=O)O)CC[C@]3(C)[C@H](CC[C@@H]4[C@@]5(C)C[C@H](O)[C@H](O)C(C)(C)[C@@H]5CC[C@]43C)[C@@H]12

>  <Result number>
1.4

$$$$
>  <Molecule>
CC(=O)O[C@H]1CC[C@]2(C)[C@H]3CC[C@@H]4[C@H]5[C@H](C(C)=O)CC[C@]5(C(=O)Nc5cncc6ccccc56)CC[C@@]4(C)[C@]3(C)CC[C@H]2C1(C)C

>  <Result number>
3.8

$$$$
>  <Molecule>
CC(=O)O[C@H]1C[C@]2(C)[C@H]3CC[C@@H]4[C@H]5[C@H](C(C)=O)CC[C@]5(C(=O)NCc5ccccc5)CC[C@@]4(C)[C@]3(C)CC[C@H]2C(C)(C)[C@H]1OC(C)=O

>  <Result number>
12.7

$$$$
>  <Molecule>
C=C(C)[C@@H]1CC[C@]2(C(=O)O)CC[C@]3(C)[C@H](CC[C@@H]4[C@@]5(C)C=C(O)C(=O)C(C)(C)[C@@H]5CC[C@]43C)[C@@H]12

>  <Result number>
1.2

$$$$
>  <Molecule>
CC(=O)O[C@H]1C[C@]2(C)[C@H]3CC[C@@H]4[C@H]5[C@H](C(C)=O)CC[C@]5(C(=O)Nc5cncc6ccccc56)CC[C@@]4(C)[C@]3(C)CC[C@H]2C(C)(C)[C@H]1OC(C)=O

>  <Result number>
4.9

$$$$
